molecular target: human GPC3 on cells (human, UniProt P51654 25-554); experiment: cell-based or functional assay
MEASURED_QUANTITY: EC50 of ADCC signaling (Jurkat-hCD16a-NFAT luciferase reporter), HEPG2 cells (nM)
Write it as a number; the unit nM goes unstated.

Entry 52H5D3B8-20#-VH2+VL3 (antibody, V domains shown) VH: QVQLVQSGAEVKKPGASVKVSCKASGYRFTDYEMHWVRQAPGQGLEWIGAIHPGSGGTAYNQLFKGRVTMTADTSTSTVYMELSSLRSEDTAVYYCTRYYSYAYWGQGTLVTVSS VL: DIVMTQTPLSLSVTPGQPASISCRSSQSLVHSNGNTYLQWYLQKPGQSPKLLIYKVSNRFPGVPDRFSGSGSGTDFTLKISRVEAEDVGVYYCVESIHVPYTFGGGTKLEIK , EC50 of ADCC signaling (Jurkat-hCD16a-NFAT luciferase reporter), HEPG2 cells reported as 0.0571
